Measured TGI accompanies every entry in the list below.
# System: NCI-H226 lung
# assay info: NCI tumour cell line growth inhibition, 48 h

Give the measured TGI for CC1(C)OC2[C@@H](CO[C@@]3([C@H]4OC(C)(C)O[C@@H]4CO)OC(C)(C)O[C@@H]23)O1 (stereo not given in full)
> 100 µM

Give the measured TGI for COC1=CC(c2ccc[nH]2)=N/C1=C\c1[nH]c(C)c(C)c1CCC(=O)OCc1ccccc1
2.46 µM

Give the measured TGI for CC1(C)OC2OC(C(=O)c3ccccc3)C3OC(C)(C)OC3C2O1 (stereo not given)
> 100 µM

Give the measured TGI for COc1ccc(C=NCCCN=Cc2ccc(OC)cc2O)c(O)c1
59.3 µM

Give the measured TGI for CN(CC1NCCCC1O)C12CC3CC(CC(C3)C1)C2 (stereo not given)
> 100 µM

Give the measured TGI for CCOC(=O)CP(=S)(S)c1ccccc1 (stereo not given)
> 100 µM

Give the measured TGI for N#Cc1c(O)c(C=O)c(=O)n2c1[nH]c1ccccc12
> 100 µM

Give the measured TGI for CCN(CCN(CC)C(=O)NC)C(=O)NC
> 100 µM

Give the measured TGI for CCOC(=O)CCC(C(=O)OCC)n1nnc2ccc(Nc3c(C)[n+]([O-])c4cc(F)c(OCC)cc4[n+]3[O-])cc21 (stereo not given)
> 100 µM

// switching to the query compound
Give the measured TGI for O=C(CC1(O)C(=O)Nc2ccc([N+](=O)[O-])cc21)c1ccc(Br)cc1 (stereo not given)
> 100 µM
